Just for reference, paper PMC10099993 is where these values come from.

- ASSAY DETAILS: Mass balance study, single oral dose of [14C]-pexidartinib 400 mg
- Type: in vivo, human
- SETTINGS: male, human, plasma, po, 400 mg
ASSAY ENDPOINT: Tmax (h)

[[record]]
compound = "FC(F)(F)c1ccc(CNc2ccc(Cc3c[nH]c4ncc(Cl)cc34)cn2)cn1 [Pexidartinib]"
assay_endpoint = "Tmax"
numeric_readout = 1.75


###

- ASSAY DETAILS: Mass balance study, single oral dose of [14C]-pexidartinib 400 mg
- Type: in vivo, human
- SETTINGS: male, human, plasma, po, 400 mg
ASSAY ENDPOINT: Cmax

[[record]]
molecule_smiles = "FC(F)(F)c1ccc(CNc2ccc(Cc3c[nH]c4ncc(Cl)cc34)cn2)cn1"
assay_endpoint = "Cmax"
result = "2920 ng/mL"

